// provenance: PubChem BioAssay (NCI)

test system: CCRF-CEM leukemia; experiment: NCI tumour cell line growth inhibition, 48 h
Reported TGI by item:

Solved cases below.
# compound, result
records = [
    ("CC1=C2c3ccccc3N(C(=O)/C=C/C(=O)O)[C@H]2[C@H]2C(=O)OC(=O)[C@H]2C1", "> 10 µM"),
    ("CN(C)c1ccc(/C(Br)=C2\\OC(=O)c3ccccc32)cc1", "> 100 µM"),
    ("Cn1cc(C2=C(c3ccc(OC[C@@H](O)CO)cc3)C(=O)NC2=O)c2ccccc21", "> 25 µM"),
    ("CCOC(=O)c1cc(-c2ccc([N+](=O)[O-])cc2)n(-c2ccc(C(=O)O)c(O)c2)c1C", "> 100 µM"),
    ("CCN1CCN(c2nc(NCCNc3ccnc4cc(Cl)ccc34)c3ccccc3n2)CC1", "7.59 µM"),
]

The compound listed as COC(c1ccc(C(C)(C)C)cc1)(c1ccc(C(C)(C)C)cc1)c1cc(C(O)(c2cc(C(OC)(c3ccc(C(C)(C)C)cc3)c3ccc(C(C)(C)C)cc3)c(C)cc2C)c2cc(C(OC)(c3ccc(C(C)(C)C)cc3)c3ccc(C(C)(C)C)cc3)c(C)cc2C)c(C)cc1C shows TGI equal to > 100 µM

In plain terms, Clc1ccc(Cc2nc3cc4ccccc4cc3[nH]2)cc1 has a documented TGI of > 100 µM

Summary for this compound, O=C(/C=C/c1cccs1)c1ccc(Cl)cc1 : TGI is 68 µM

For record C1CN2N3CCCC23C1 (centres undefined) the listed TGI is > 100 µM
